method: log P determination by HPLC on reversed-phase column (C 18), EEC Directive 79/831 Annex V.A8
Assay type: physicochemical
condition details: reversed-phase HPLC column (C 18); pH 2.3; 0.1% aqueous phosphoric acid and acetonitrile; 43° C.
parameter: chromatographic logP

compound	reported result
Cn1cc(C(=O)N(c2ccccc2-c2ccc(Cl)cc2)C2CC2)c(C(F)F)n1	3.38
Cn1cc(C(=O)N(c2ccc(F)cc2-c2ccc(Cl)c(Cl)c2)C2CC2)c(C(F)F)n1	3.85

I: Cc1nn(C)c(F)c1C(=O)N(c1ccccc1-c1ccc(Cl)cc1)C1CC1
II: CC(C)CC(C)c1ccccc1NC1CC1 (stereo not shown)
Prompt: When the recorded chromatographic logP values are compared, which is smaller: that of I or that of II ? Your answer should be the label of the entry you select.
Completion: I

---

method: log P determination by HPLC on reversed-phase column (C 18), EEC Directive 79/831 Annex V.A8
Assay type: physicochemical
condition details: reversed-phase HPLC column (C 18); pH 2.3; 0.1% aqueous phosphoric acid and acetonitrile; 43° C.
parameter: chromatographic logP

compound	chromatographic logP
CC(C)CC(C)c1ccccc1N(C(=O)c1cn(C)nc1C(F)F)C1CC1 (stereo not drawn)	3.89
Cc1nn(C)c(F)c1C(=O)N(c1ccc(F)cc1-c1ccc(Cl)c(Cl)c1)C1CC1	3.74
Cc1nn(C)c(F)c1C(=O)N(c1ccccc1C(C)CC(C)C)C1CC1 (stereo not drawn)	3.74
